Cited source: patent US11919887B2

- TESTED TARGET: human Nav 1.8 (Homo sapiens)
- ASSAY INFO: E-VIPR assay detecting and measuring Nav inhibition (HEK cells expressing truncated human Nav 1.8)
- Assay type: cell-based
- TEST CONTEXT: in the Presence of Human Serum in the E-VIPR Assay; read-out: IC50
- Text: Sodium ion channels are voltage-dependent proteins that can be activated by inducing membrane voltage changes by applying electric fields. The electrical stimulation instrument and methods of use, referred to as E-VIPR, are described in International Publication No. WO 2002/008748 A3 and C.-J. Huang et al. Characterization of voltage-gated sodium channel blockers by electrical stimulation and fluorescence detection of membrane potential, 24 Nature Biotech. […]
Please provide measured IC50 for the entries that follow.

Lab book: IC50 of CC(C)Oc1c([C@H]2[C@H](C(=O)Nc3ccnc(C(N)=O)c3)O[C@@](C)(C(F)(F)F)[C@H]2C)ccc(F)c1F (single isomer, unassigned) noted as < 10 nM

What the record says about CC[C@@H]1[C@H](c2ccc(F)c(F)c2OC)[C@@H](C(=O)Nc2ccnc(C(N)=O)c2)O[C@]1(C)C(F)(F)F (single isomer, unassigned) : IC50 is > 1000 nM

get_value(item= COc1c([C@H]2[C@H](C(=O)Nc3ccnc(C(N)=O)c3)OC(C)(C)[C@H]2C)ccc(F)c1F (single isomer, unassigned) , readout=IC50) returns 10 to 100 nM

Documented IC50 of CC(C)Oc1c([C@@H]2[C@@H](C(=O)Nc3ccnc(C(N)=O)c3)O[C@](C)(C(F)(F)F)[C@@H]2C)ccc(F)c1F (single isomer, unassigned) : > 1000 nM

Lab note: COc1c([C@@H]2[C@H](C)[C@H](C)O[C@H]2C(=O)Nc2ccnc(C(N)=O)c2)ccc(F)c1F (stereo in doubt) gave IC50 of 100 to 1000 nM

###

- TESTED TARGET: human Nav 1.8 (Homo sapiens, UniProt Q9Y5Y9)
- Sequence (Q9Y5Y9 whole entry, looked up, the tested form may be a part): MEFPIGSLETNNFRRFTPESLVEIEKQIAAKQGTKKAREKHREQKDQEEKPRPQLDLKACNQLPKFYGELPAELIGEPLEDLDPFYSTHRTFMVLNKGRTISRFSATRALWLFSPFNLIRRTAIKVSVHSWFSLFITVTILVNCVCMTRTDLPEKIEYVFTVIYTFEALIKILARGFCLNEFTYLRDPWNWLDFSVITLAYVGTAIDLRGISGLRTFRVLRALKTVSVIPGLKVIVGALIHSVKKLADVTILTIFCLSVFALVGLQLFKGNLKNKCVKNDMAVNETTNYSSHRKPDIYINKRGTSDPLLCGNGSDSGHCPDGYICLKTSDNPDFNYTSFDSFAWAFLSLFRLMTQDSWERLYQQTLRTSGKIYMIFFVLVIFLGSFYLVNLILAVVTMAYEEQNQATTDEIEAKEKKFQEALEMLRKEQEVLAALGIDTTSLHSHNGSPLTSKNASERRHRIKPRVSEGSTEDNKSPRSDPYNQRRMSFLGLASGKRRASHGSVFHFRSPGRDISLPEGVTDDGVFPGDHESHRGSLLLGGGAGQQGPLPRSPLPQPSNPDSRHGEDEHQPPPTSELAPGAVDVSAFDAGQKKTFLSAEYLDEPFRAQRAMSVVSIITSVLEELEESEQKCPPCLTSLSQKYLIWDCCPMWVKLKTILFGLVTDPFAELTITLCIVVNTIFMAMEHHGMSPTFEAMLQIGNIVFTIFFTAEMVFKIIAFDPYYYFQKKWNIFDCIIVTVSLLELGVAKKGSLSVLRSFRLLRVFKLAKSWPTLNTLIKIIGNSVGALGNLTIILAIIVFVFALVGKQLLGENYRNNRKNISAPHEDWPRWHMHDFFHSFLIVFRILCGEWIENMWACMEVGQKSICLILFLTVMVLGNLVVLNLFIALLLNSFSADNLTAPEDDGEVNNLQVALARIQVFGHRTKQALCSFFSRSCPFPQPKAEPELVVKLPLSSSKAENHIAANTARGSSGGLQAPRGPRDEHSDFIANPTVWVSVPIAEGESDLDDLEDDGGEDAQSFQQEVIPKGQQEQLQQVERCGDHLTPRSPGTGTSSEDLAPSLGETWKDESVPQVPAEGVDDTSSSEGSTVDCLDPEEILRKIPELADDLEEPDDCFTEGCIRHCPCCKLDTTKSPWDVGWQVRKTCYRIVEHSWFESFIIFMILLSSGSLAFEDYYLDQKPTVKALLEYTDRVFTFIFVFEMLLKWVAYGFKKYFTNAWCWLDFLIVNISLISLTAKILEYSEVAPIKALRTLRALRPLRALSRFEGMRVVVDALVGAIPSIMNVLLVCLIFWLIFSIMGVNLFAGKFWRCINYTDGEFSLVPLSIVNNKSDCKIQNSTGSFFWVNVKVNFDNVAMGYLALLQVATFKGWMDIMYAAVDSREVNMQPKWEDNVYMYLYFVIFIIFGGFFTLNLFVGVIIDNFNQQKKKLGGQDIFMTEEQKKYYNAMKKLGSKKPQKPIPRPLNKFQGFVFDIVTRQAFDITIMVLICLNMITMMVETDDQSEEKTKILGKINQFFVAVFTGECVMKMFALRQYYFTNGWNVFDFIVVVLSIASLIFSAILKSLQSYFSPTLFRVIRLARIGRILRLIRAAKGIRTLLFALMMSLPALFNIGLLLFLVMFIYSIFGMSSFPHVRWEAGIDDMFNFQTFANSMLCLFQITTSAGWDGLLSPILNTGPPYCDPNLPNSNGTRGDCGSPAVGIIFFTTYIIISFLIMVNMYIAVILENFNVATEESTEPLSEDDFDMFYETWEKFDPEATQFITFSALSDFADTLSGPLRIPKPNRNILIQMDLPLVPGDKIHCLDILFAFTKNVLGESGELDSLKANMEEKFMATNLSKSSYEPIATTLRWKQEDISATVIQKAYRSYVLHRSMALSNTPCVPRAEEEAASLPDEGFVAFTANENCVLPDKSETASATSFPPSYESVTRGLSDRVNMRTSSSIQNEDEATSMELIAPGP
- ASSAY INFO: E-VIPR assay detecting and measuring Nav inhibition (HEK cells expressing truncated human Nav 1.8)
- Assay type: cell-based
- TEST CONTEXT: in the Presence of Human Serum in the E-VIPR Assay; read-out: IC50
Could you please report measured IC50 for the items listed next?

Notebook: CC[C@@]1(C(F)(F)F)C[C@H](c2ccc(F)c(F)c2OC)[C@@H](C(=O)Nc2ccnc(C(N)=O)c2)O1 (stereo in doubt) , IC50 read as > 1000 nM

Briefly, IC50 measured for C[C@@H]1[C@H](c2ccc(F)c(F)c2OC(F)F)[C@@H](C(=O)Nc2cccc(C(N)=O)c2)O[C@]1(C)C(F)(F)F (single isomer, unassigned) : > 1000 nM

Input COc1cc(F)ccc1[C@@H]1C[C@](C)(C(F)(F)F)O[C@@H]1C(=O)Nc1ccnc(C(N)=O)c1 (relative stereo) . Output IC50: > 1000 nM

Entry C[C@@H]1[C@H](c2ccc(F)c(F)c2OC(F)F)[C@@H](C(=O)Nc2ccnc(C(N)=O)c2)O[C@]1(C)C(F)(F)F — recorded IC50 = > 1000 nM

IC50 for Cc1c(F)ccc([C@H]2C[C@@](C)(C(F)(F)F)O[C@@H]2C(=O)Nc2ccnc(C(N)=O)c2)c1F (single isomer, unassigned) is > 1000 nM

Form field IC50, entry Cc1c(F)ccc([C@H]2[C@H](C(=O)Nc3ccnc(C(N)=O)c3)O[C@@](C)(C(F)(F)F)[C@H]2C)c1OC(F)F (stereo in doubt) [Compound 17] : < 10 nM

Lookup result for COc1c([C@@H]2C[C@@](C)(CC(F)(F)F)O[C@H]2C(=O)Nc2ccnc(C(N)=O)c2)ccc(F)c1F (single isomer, unassigned) ; measured IC50: > 1000 nM

What the record says about COc1c([C@H]2C[C@@](C)(C(C)(F)F)O[C@@H]2C(=O)Nc2ccnc(C(N)=O)c2)ccc(F)c1F (single isomer, unassigned) : IC50 is > 1000 nM

Lab note: COc1cc(F)ccc1[C@H]1[C@H](C(=O)Nc2ccnc(C(N)=O)c2)O[C@@](C)(C(F)(F)F)[C@H]1C (single isomer, unassigned) gave IC50 of > 1000 nM

The recorded IC50 for CCc1c(F)ccc([C@H]2C[C@@](C)(C(F)(F)F)O[C@@H]2C(=O)Nc2ccnc(C(N)=O)c2)c1OC (single isomer, unassigned) is > 1000 nM

// field: IC50; key: C[C@H]1[C@@H](c2ccc(F)c(F)c2OC(F)F)[C@H](C(=O)Nc2cccc(C(N)=O)c2)O[C@@]1(C)C(F)(F)F (single isomer, unassigned) ; value = < 10 nM

###

- TESTED TARGET: human Nav 1.8 (Homo sapiens, UniProt Q9Y5Y9)
- ASSAY INFO: E-VIPR assay detecting and measuring Nav inhibition (HEK cells expressing truncated human Nav 1.8)
- Type: cell-based
- TEST CONTEXT: in the Presence of Human Serum in the E-VIPR Assay; read-out: IC50
- Text: Sodium ion channels are voltage-dependent proteins that can be activated by inducing membrane voltage changes by applying electric fields. The electrical stimulation instrument and methods of use, referred to as E-VIPR, are described in International Publication No. WO 2002/008748 A3 and C.-J. Huang et al. Characterization of voltage-gated sodium channel blockers by electrical stimulation and fluorescence detection of membrane potential, 24 Nature Biotech. […]
ASSAY ENDPOINT: IC50

Reported IC50 ( CNC(=O)c1cc(NC(=O)[C@H]2O[C@@](C)(C(F)(F)F)[C@H](C)[C@@H]2c2ccc(F)c(F)c2OC(F)F)ccn1 (stereo in doubt) [Compound 13] ) = 0.01 to 0.1 µM

Per the records, this compound ( COc1cccc(F)c1[C@@H]1C[C@](C)(C(F)(F)F)O[C@H]1C(=O)Nc1ccnc(C(N)=O)c1 (racemic) [Compound 79] ) has IC50 equal to > 1 µM

Note to self: IC50 recorded for COc1c([C@@H]2[C@@H](C)[C@@](C)(C(F)F)O[C@H]2C(=O)Nc2ccnc(C(N)=O)c2)ccc(F)c1F (stereo in doubt) [Compound 96] was > 1 µM

For this compound ( Cc1c(F)ccc([C@H]2[C@H](C(=O)Nc3ccnc(C(N)=O)c3)O[C@@](C)(C(F)(F)F)[C@H]2C)c1OC(F)F (stereo in doubt) [Compound 16] ), measured IC50 is > 1 µM

Documented IC50 of CC[C@H]1[C@@H](c2ccc(F)c(F)c2OC)[C@H](C(=O)Nc2ccnc(C(N)=O)c2)O[C@@]1(C)C(F)(F)F (racemic) [Compound 116] : < 0.01 µM

Sure, the documented IC50 for CC[C@]1(C(F)(F)F)C[C@@H](c2ccc(F)c(F)c2OC)[C@H](C(=O)Nc2ccnc(C(N)=O)c2)O1 (stereo in doubt) [Compound 64] is 0.01 to 0.1 µM

COc1c([C@H]2[C@H](C(=O)Nc3cc[n+]([O-])c(C(N)=O)c3)O[C@@](C)(C(F)(F)F)[C@H]2C)ccc(F)c1F [Compound 19] yielded IC50 of < 0.01 µM

Recorded IC50 (compound COc1cc(F)ccc1[C@@H]1[C@@H](C)[C@@](C)(C(F)(F)F)O[C@H]1C(=O)Nc1ccnc(C(N)=O)c1 (single isomer, unassigned) [Compound 36] ): > 1 µM

IC50 for CNC(=O)c1cc(NC(=O)[C@H]2O[C@@](C)(C(F)(F)F)C[C@@H]2c2ccc(F)c(Cl)c2OC)ccn1 (single isomer, unassigned) [Compound 61] is 0.1 to 1 µM

The compound listed as C[C@H]1[C@@H](c2ccc(F)c(F)c2O)[C@H](C(=O)Nc2cc[n+]([O-])c(C(N)=O)c2)O[C@@]1(C)C(F)(F)F [Compound 57] shows IC50 equal to > 1 µM

The reported IC50 of the compound COc1c([C@H]2C[C@@H](C(F)(F)F)O[C@@H]2C(=O)Nc2ccnc(C(N)=O)c2)ccc(F)c1F (stereo in doubt) [Compound 109] was > 1 µM
